# Tested on: UACC-62
# protocol.summary: NCI tumour cell line growth inhibition, 48 h
The source made the active and inactive calls. Rule as the data show it: active = GI50 up to about 1.1 µM and inactive = higher.
// allowed return values: yes (1) (active), no (0) (inactive)

For orientation, consider the following solved cases.
INSERT INTO assay_data (molecule, assigned_label) VALUES
  ('COc1ccc(N2C(=O)C3c4[nH]c5cccc(C)c5c4C4CCC(C(C)(C)C)CC4C3C2=O)cc1 (centres undefined)', 'no (0)'),
  ('C=C(C)C12OC1[C@@]1(C)C(=CC2=O)CCC(O)[C@@H]1C (some centres undefined)', 'no (0)'),
  ('COc1ccc2c(c1)CCN1CCc3cc(OC)c(OC)cc3CC21 (centres undefined)', 'no (0)');

Ask: Dear colleague, could you share the recorded outcome for O=C1CC(NCCCNC2CC(=O)c3c(Br)sc(Br)c32)c2c(Br)sc(Br)c21 (centres undefined) when you have a moment?
Reply: no (0)

Ask: # iterate: Cc1nn(-c2ccccc2)c(C)c1/C=N/NC(=O)c1sc(=S)n(-c2ccc(Cl)cc2)c1N
Reply: no (0)

Ask: Next: CC1CCC2(OC1)OC1CC3C4CC=C5CC(OC6OC(CO)C(OC7OC(C)C(OC8OC(C)C(O)C(O)C8O)C(O)C7O)C(O)C6OC6OC(C)C(O)C(O)C6O)CCC5(C)C4CCC3(C)C1C2C (centres undefined)
Reply: yes (1)

---

# System: SK-OV-3
# protocol.summary: NCI tumour cell line growth inhibition, 48 h
Active and inactive are the calls of the source. Rule as the data show it: active = GI50 up to about 1.1 µM and inactive = higher.
recorded.metric: GI50

INSERT INTO results (molecule, target, result) VALUES
  ('O=C1CC(NCCCNC2CC(=O)c3c(Br)sc(Br)c32)c2c(Br)sc(Br)c21 (stereo not drawn)', 'SK-OV-3', '4.1 µM (inactive)'),
  ('CC1=C(C#N)C(C#N)(C#N)C(NN(C)C)C1 (stereo not drawn)', 'SK-OV-3', '> 100 µM (inactive)'),
  ('CCOC(=O)c1c[nH]c2c(ccc3nn(C)nc32)c1=O', 'SK-OV-3', '> 100 µM (inactive)'),
  ('O=C1c2cc(Cl)ccc2N=C(NC2CCCC2)C2CSCN12 (stereo not drawn)', 'SK-OV-3', '> 100 µM (inactive)'),
  ('O=C1c2ccccc2CC1C1(O)C(=O)Nc2ccccc21 (stereo not drawn)', 'SK-OV-3', '> 100 µM (inactive)'),
  ('NC(Cc1ccccc1)c1nn[nH]n1 (stereo not drawn)', 'SK-OV-3', '> 100 µM (inactive)');

Ask: What does the data say about its GI50? Entry: CN1c2ccccc2C(=O)NC12CCNCC2
Reply: > 100 µM (inactive)

Ask: Same read-out for O=C(C1OC1c1ccc(Cl)cc1)C12CC3CC(CC(C3)C1)C2 (stereo not drawn) ?
Reply: 31 µM (inactive)

---

# Tested on: Hs-578T
# protocol.summary: NCI tumour cell line growth inhibition, 48 h
Calls of active or inactive are those of the source. No stated cut-off is given here; in the data, active = GI50 up to about 1.1 µM and inactive = higher.
recorded.metric: GI50

Check out these entries, answers already filled in.
INSERT INTO measurements (molecule, recorded_metric, result) VALUES
  ('CCOP(=O)(OCC)C(C#N)Cc1ccco1 (stereo not given)', 'GI50', '> 10 µM (inactive)'),
  ('COC(=O)c1nc2n(n1)-c1ccccc1C(=O)N(Cc1ccccc1)C2', 'GI50', '> 100 µM (inactive)'),
  ('NC(Cc1ccc(S(=O)(=O)O)cc1)C(=O)NC(Cc1ccc(S(=O)(=O)O)cc1)C(=O)NC(Cc1ccc(S(=O)(=O)O)cc1)C(=O)O (stereo not given)', 'GI50', '> 100 µM (inactive)'),
  ('O=C(CC(=O)N1N=C(N(c2ccccc2)c2ccccc2)CC1c1ccccc1)Nc1ccc(Cl)cc1 (stereo not given)', 'GI50', '> 100 µM (inactive)'),
  ('O=C1CC(NCCCNC2CC(=O)c3c(Br)sc(Br)c32)c2c(Br)sc(Br)c21 (stereo not given)', 'GI50', '4.58 µM (inactive)'),
  ('O=C/C(=C(/Br)I)c1ccccc1', 'GI50', '9.59 µM (inactive)');

Ask: Look at this molecule and give its reported GI50. O=C(NC(=S)Nc1ccc(Br)cc1)c1ccc2c(c1)Sc1ccccc1S2
Reply: 26.5 µM (inactive)

Ask: Then this molecule: CCSC1=N/C(=C\c2ccco2)C(NN)=N1
Reply: > 50 µM (inactive)

Ask: Follow-up entry: O=C(c1ccc(Cl)c(Cl)c1)N(C(=S)OC12CC3CC(CC(C3)C1)C2)c1ccccc1
Reply: 41.3 µM (inactive)

Ask: # iterate: O=P1(N(CCCl)CCCl)Oc2ccc(Cl)cc2Sc2c(ccc(Cl)c2Cl)O1 (stereo not given)
Reply: 2.13 µM (inactive)

---

# Tested on: UACC-62
# protocol.summary: NCI tumour cell line growth inhibition, 48 h
The source made the active and inactive calls. Rule as the data show it: active = GI50 up to about 1.1 µM and inactive = higher.
recorded.metric: GI50

Below are worked cases with known answers.
INSERT INTO measurements (molecule, recorded_metric, result) VALUES
  ('[O-][S+]1Nc2c(Cl)cc(Cl)c(Cl)c2S1 (stereo unspecified)', 'GI50', '> 100 µM (inactive)'),
  ('C=C(Br)CNC(=O)CCC(=O)NCC(=C)Br', 'GI50', '> 100 µM (inactive)'),
  ('COC(=O)c1nc2n(n1)-c1ccccc1C(=O)N(Cc1ccccc1)C2', 'GI50', '> 100 µM (inactive)');

Ask: Item under review: CCOC(=O)c1c[nH]c2c(ccc3nn(C)nc32)c1=O . Reported GI50?
Reply: > 100 µM (inactive)

---

# Tested on: TK-10
# protocol.summary: NCI tumour cell line growth inhibition, 48 h
Activity calls are given as the source filed them. Cut-off read from the data, not from the text of the source: active = GI50 up to about 1.1 µM and inactive = higher.
Can you answer with just one of these options? active, inactive

A selection of reference data follows.
INSERT INTO assay_data (compound, assigned_label) VALUES
  ('Cc1ccnc(NS(=O)(=O)c2ccc(NC(=O)c3ccc4nc5ccccc5c(Nc5ccc(S(=O)(=O)Nc6nccc(C)n6)cc5)c4c3)cc2)n1', 'inactive'),
  ('Cc1c(-c2c(C)c3ccccc3n2S(=O)(=O)c2ccccc2)n(S(=O)(=O)c2ccccc2)c2ccccc12', 'inactive'),
  ('O=C1/C(=C\c2c(-c3ccccc3)[nH]n(-c3ccccc3)c2=O)C(c2ccccc2)=NN1c1ccccc1', 'inactive'),
  ('C/C=C/C=C\C1OC(O)([C@H](CC)C(=O)NC/C=C/C=C(\C)[C@H](OC)C(C)C2OC(\C=C/C=C/C=C(\C)C(=O)c3c(O)ccn(C)c3=O)[C@H](O)[C@@H]2O)C(O)C(O)C1(C)C (stereo not given in full)', 'inactive'),
  ('COc1cc2c3c(cc(Cl)nc3c1OC)C(O)(CC(=O)c1ccccc1)C(=O)N2 (stereo not given)', 'inactive'),
  ('CCOC(=O)c1c[nH]c2c(ccc3nn(C)nc32)c1=O', 'inactive'),
  ('Nc1ccc(C2SCC(=O)N2NS(=O)(=O)c2cccc(C(=O)O)c2)cc1 (stereo not given)', 'inactive'),
  ('CC(=O)Nc1ccc(OC2=CCN(C)CC2)cc1', 'inactive');

Ask: // param item: NS(=O)(=O)c1ccc(C(=O)O)cc1 [CARZENIDE] ; yields the recorded call
Reply: inactive

Ask: And what about the compound COc1ccc(/C=C2/C(C)=NN(c3cccc(Cl)c3)/C2=N/c2nc3ccccc3s2)cc1 ?
Reply: inactive

Ask: One more compound: Cc1cccc(NC(=S)Nc2ccc([N+](=O)[O-])cc2)n1
Reply: inactive

Ask: And the next one, CCOC(=O)/C(=C\NC(C)(C)CO)c1nc2ccccc2[nH]1 ?
Reply: inactive

Ask: What do you get for CC(Nc1cc(Cl)cc(Cl)c1)c1ccncc1 (stereo not given) ?
Reply: inactive

Ask: Try this compound next: COC(=O)c1nc2n(n1)-c1ccccc1C(=O)N(Cc1ccccc1)C2
Reply: inactive

Ask: Similarly, O=C(c1ccccc1)C1N=NCC1c1ccc([N+](=O)[O-])cc1 (stereo not given) ?
Reply: inactive

Ask: // query: COCC12CCC(OC)C34C5CC6(O)C(OC)C=C(C5C6OC(=O)c5ccccc5)C(C(OC)C13)C4N(C)C2 (stereo not given)
Reply: inactive

Ask: # repeat for CC1=C(C)C(=O)C(C2=CC(=O)C=CC2=O)=C(C2=CC(=O)C=CC2=O)C1=O
Reply: inactive

---

# Tested on: CAKI-1
# protocol.summary: NCI tumour cell line growth inhibition, 48 h
Calls of active or inactive are those of the source. Rule as the data show it: active = GI50 up to about 1.1 µM and inactive = higher.
// one of yes = active, no = inactive, no free text

Examples with answers:
INSERT INTO assay_data (compound, assigned_label) VALUES
  ('CC(=O)Oc1ccc2c(C)cc(=O)oc2c1', 'no'),
  ('Cc1ccc(C(=O)N/N=C(\N=N\c2ccccc2[N+](=O)[O-])c2ccc(N(C)C)cc2)cc1', 'no'),
  ('CC(=O)OCCCCN1C(=O)CSc2ccccc21', 'no'),
  ('O=C(O)c1cc(C(=O)O)cc(N2C(=O)c3ccccc3C2=O)c1', 'no'),
  ('CCOC(=O)C(c1c[nH]c2ccccc12)(c1c[nH]c2ccccc12)c1c[nH]c2ccccc12', 'no');

Ask: Hello, I am checking results. What call was entered for COC(=O)C1=C2Nc3ccccc3C23CCN2C(O)C4(CC5CC67CCOC6CCN6CCC8(c9cccc(OC)c9N(C4)C58O)C67)C4OCCC4(C1)C23 (stereo not given) ?
Reply: no

Ask: And for O=C(C/C(=N/O)c1cc(-c2ccccc2)no1)c1ccccc1 ?
Reply: no

Ask: CN(CCNC(=O)c1c[nH]c2c1ccc1ccccc12)CCNC(=O)c1c[nH]c2c1ccc1ccccc12 , same question.
Reply: no

Ask: Input Cc1cc(C#N)c(Nc2ccccc2[N+](=O)[O-])s1
Reply: no

Ask: Input NNC(=O)C(=O)N/N=C1\CCC(=O)CC1C(=O)CCC(=O)Nc1ccc(Cl)cc1 (stereo not given)
Reply: no

Ask: Same question for Nc1ccc(S(=O)(=O)c2ccc(/N=[N+](\[O-])c3ccc(S(=O)(=O)c4ccc(N)cc4)cc3)cc2)cc1 please.
Reply: no
